target: EGFR on A431 epidermoid carcinoma cells (human, UniProt P00533 25-1210); assay: cell-based or functional assay
Maximum Cell Killing (%) less than 40% is Y; Maximum Cell Killing (%) greater than or equal to 40% is N.

binder | qualitative.label
H1H147P (antibody, human IgG1, V domains shown, Human IgG1 Fc (H1H)) VH: EVQLVESGPGLVQPSQTLSLTCTVSGGSINSGDFYWSWIRQHPGKGLEWIGHIYYSGITYYSPSLKSRLTISVDTSKNQFSLKLSSVTAADTAVYYCARKRVTGEVDYWGQGTLVTVSS VL: DIQMTQSPSSLSASVGDRITITCQANQDINNYLNWYQQKPGKAPKLLISDASNLETGVPSRFSGSGSGTDFTFTISSLQPEDIATYYCQQYDNLPPTFGQGTRLEIKR | Y

Q. Lab note: Maximum Cell Killing (%) threshold 40%. Does this binder come in strictly under it? H1H161P (antibody, human IgG1, V domains shown, Human IgG1 Fc (H1H)) VH: QVQLVESGGGVVQPGRSLRLSCAASGFTFSNYGMYWVRQAPGKGLEWVTFISYDGSNKNYVDSMKGRFTISRDNSKNTLYLQMNSLRVEDTAVYYCAKDRISGTPWYGMDVWGQGTTVTVSS VL: DIQMTQSPSSLSASVGDRVTITCRASQDIADYLAWFQQKPGKAPKSLIFAASSLESWVPLKFSGSGSGTDFTLTISSLQPEDFATYYCQQYSRFPITFGQGTKVEIK
A. Y

Q. Does the reported Maximum Cell Killing (%) of the following binder sit strictly below 40%? H1H159P (antibody, human IgG1, V domains shown, Human IgG1 Fc (H1H)) VH: EVQLVESGGGLVQPGGSLRLSCAASRFTFTNYWMSWVRQAPGKGLEWVAKIKQDGSEKYYLDSVKDRFTISRDNAKNSLYLQMNSLRAEDTAVYYCASSSSWYDYYYGMDVWGHGTTVTVSS VL: EIVLTQSPDFQSVTPKEKVTITCRASQSIGTNLHWYQQRPDQSPKLLIKFASQSFSGVPSRFSGSGSGTDFTLTINSLEAEDAATYYCHQTNFLPHTFGGGTKVEIKR
A. N

Q. Lab log: compare recorded Maximum Cell Killing (%) with 40%; is it strictly lower for H1H155P (antibody, human IgG1, V domains shown, Human IgG1 Fc (H1H)) VH: QVQLVESGGGVVQPGRSLRLSCAASGFTFSIYGMHWVRQAPGKGLEWVTVISDDGSKKYYVDSVKGRFTLSRDNSKNTLYLQMNSLRAEDTAVYYCARDRITGTNWYGMDVWGQGTTVTVSS VL: DIQMTQSPSSLSASVGDRVTITCRASQDISNYLAWFQQKPGKAPKSLIFAASSLQSGGPSKFSGSGSGTDFTLTISSLQPEDFATYYCQQYNRYPFTFGPGTKVDIK ?
A. Y

Q. Is it true that Maximum Cell Killing (%) reported for H1H086N (antibody, human IgG1, V domains shown, Tested in human IgG1 Fc format (H1H); also called H1M086N) VH: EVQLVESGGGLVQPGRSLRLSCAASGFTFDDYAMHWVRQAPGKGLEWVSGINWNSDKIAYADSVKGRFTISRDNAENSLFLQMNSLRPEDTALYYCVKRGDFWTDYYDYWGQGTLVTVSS VL: DIVMTQSPLSLPVTPGEPASISCRSSQSLLHSNGYNYLDWYLQKPGQSPHLLIYLVSTRASGVPDRFSGSGSGTDFTLKISRVEAEDVGVYYCMQALQTPWTFGQGTKVEIK is less than 40%?
A. Y

These data points were gathered from patent US20180036405A1.
